Values compiled from patent US12410153B2.

Assay: Human pharmacokinetic study, single ascending oral doses
Assay type: in vivo
Settings: male, human, plasma, oral, 8 mg, fasted, mean; read-out: t1/2 (converted)
Property: half-life

Query: # lookup: half-life of Cc1ccc(COC(=O)N2CC[C@H](CNc3ncccn3)[C@H](F)C2)cc1 [Form II]
Reply: 17 h

---

Assay: Repeated once-daily oral dosing with food (Days 1-7) in healthy subjects, PK and PD
Format: in vivo, human
Conditions: male, human, plasma, oral, males, all doses pooled, Day 1; read-out: tmax, Median
Property: Tmax (h)
Output spec: scalar in h, unitless text.

Query: Tmax lookup needed for Cc1ccc(COC(=O)N2CC[C@H](CNc3ncccn3)[C@H](F)C2)cc1 [Form II] , thanks.
Reply: 2

---

Assay: Repeated once-daily oral dosing with food (Days 1-7) in healthy subjects, PK and PD
Assay type: in vivo, human
Conditions: male, human, plasma, oral, males, all doses pooled, Day 1; read-out: AUClast, Mean (SD)
Property: AUC(0-t)
Please append the unit to your numeric answer.

Query: Can you share its AUC(0-t)? I mean this molecule: Cc1ccc(COC(=O)N2CC[C@H](CNc3ncccn3)[C@H](F)C2)cc1 [Form II]
Reply: 2190 ng·h/mL

---

Assay: Repeated once-daily oral dosing with food (Days 1-7) in healthy subjects, PK and PD
Type: in vivo, human
Settings: female, human, plasma, oral, females, all doses pooled, Day 1; read-out: tmax, Mean (SD)
Property: Tmax (h)
Express your answer in h, writing the number without its unit.

Query: What value of Tmax has been recorded for this entry: Cc1ccc(COC(=O)N2CC[C@H](CNc3ncccn3)[C@H](F)C2)cc1 [Form II]
Reply: 2.26

---

Test: Repeated once-daily oral dosing with food (Days 1-7) in healthy subjects, PK and PD
Type: in vivo, human
Details: both sexes, human, plasma, oral, 12 mg, young subjects, 12 mg, Day 7; read-out: AUCinf, Mean (SD)
Property: AUC(0-inf) (ng·h/mL)
Express it in ng·h/mL; write the number only.

Query: So what does the record say about AUC(0-inf) for Cc1ccc(COC(=O)N2CC[C@H](CNc3ncccn3)[C@H](F)C2)cc1 [Form II] ?
Reply: 5930

---

Assay: Human pharmacokinetic study, single ascending oral doses
Assay type: in vivo
Conditions: male, human, plasma, oral, 4 mg, fasted, mean
Property: AUC(0-t) (ng·h/mL)
Report the value in ng·h/mL with no unit label.

Query: Given the compound Cc1ccc(COC(=O)N2CC[C@H](CNc3ncccn3)[C@H](F)C2)cc1 [Form II] , what is its reported AUC(0-t)?
Reply: 1060

---

Test: Human pharmacokinetic study, single ascending oral doses
Type: in vivo
Conditions: male, human, plasma, oral, 2 mg, fasted, mean
Property: AUC(0-t) (ng·h/mL)
Kindly provide the numeric value in ng·h/mL only, without the unit symbol.

Query: I'd like to know its AUC(0-t). The compound in question is Cc1ccc(COC(=O)N2CC[C@H](CNc3ncccn3)[C@H](F)C2)cc1 [Form II]
Reply: 398

---

Assay: Human pharmacokinetic study, single ascending oral doses
Format: in vivo
Settings: male, human, plasma, oral, 8 mg, fasted, mean; read-out: Tmax
Property: Tmax (min)
Give the value, in units of min, as a plain number.

Query: Recorded Tmax for Cc1ccc(COC(=O)N2CC[C@H](CNc3ncccn3)[C@H](F)C2)cc1 [Form II] , please?
Reply: 55.2
